The measured values listed here are drawn from PubChem BioAssay.

composite z-score values by entry
Molecular target: Dickkopf-related protein 1 (Homo sapiens)
Test: small molecules binding DKK1 protein – biochemical, small-molecule microarray, 635 nm fluorescence scan, primary screen (AID 1106);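 also: score merges emission near 667 nm with signal to noise over three replicate slides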
Conditions: higher = more signal
quantity: composite z-score

| molecule | endpoint-value |
| --- | --- |
| CC(C)(C)OC(=O)CC[C@@]1(C(=O)N2CCCCC2)N=C(c2ccc(OCCCO)cc2)O[C@@H]1c1ccccc1CN=[N+]=[N-] | -0.0065 |
| COCCOC(=O)N1C(=O)[C@@]2(c3ccccc31)[C@H](c1ccc(OCCO)cc1)N1[C@H](c3ccccc3)[C@H](c3ccccc3)OC(=O)[C@H]1[C@@H]2C(=O)NC[C@H](O)c1ccccc1 | 0.362 |
| CC(=O)NCCCC[C@@H]1NC(=O)[C@@H]2C[C@H](C(=O)NCCCC[N+](C)(C)C)[C@H](c3cccc(OCCO)c3)N2C1=O | 0.232 |
| CC(C)N1CC=CC23O[C@@H]4C=CCOC(=O)[C@@H]4[C@H]2C(=O)N(CCCCCCO)[C@@H]3C1=O (some centres not stated) | -0.959 |
| C[N+](C)(C)CCCC[C@@H]1NC(=O)[C@@H]2C[C@H](C(=O)O)[C@H](c3cccc(OCCO)c3)N2C1=O | 0.503 |
| COC(=O)[C@]1(Cc2ccccc2CN=[N+]=[N-])N=C(c2ccc(OCCCO)cc2)O[C@@H]1c1ccccc1CN=[N+]=[N-] | 0.127 |
| COc1ccc(CCNC(=O)[C@@H]2c3ccccc3C(=O)N(Cc3ccccc3)[C@H]2c2ccc(CO)cc2)cc1 | -0.0051 |
